Kindly supply the reported log10(solubility) values for the records listed here.
measurementProtocol: Solubility test in 0.1% phosphate buffer solution (pH 7.0)
Format: physicochemical
testContext: aqueous buffer, thermodynamic from solid; 0.1% phosphate buffer solution (pH 7.0), room temperature overnight
Annotation: log10 of solubility, µg/mL basis.

Use the examples below as a reference point.
> print(dat)
                                   compound     recordedmetric  resultnumber
1  CNC(=O)c1ccccc1Sc1ccc2c(C#Cc3cncc(NC(=O)NCCOCCOCCOCCOCCOC)c3)n[nH]c2c1 [Compound 31]  log10(solubility)          1.00
2  CNC(=O)c1ccccc1Sc1ccc2c(C#Cc3ccc(NC(=O)OCCOCCOCCOCCOCCOC)cc3)n[nH]c2c1 [Compound 18]  log10(solubility)         -0.07
3  CNC(=O)c1ccccc1Sc1ccc2c(C#Cc3ccc(NC(=O)NCCOCCOCCOC)cn3)n[nH]c2c1 [Compound 35]  log10(solubility)          0.64
4  CNC(=O)c1ccccc1Sc1ccc2c(C#Cc3cncc(NC(=O)NCCOCCOCCOC)c3)n[nH]c2c1 [Compound 30]  log10(solubility)         -0.24
5  CNC(=O)c1ccccc1Sc1ccc2c(C#Cc3cccc(NC(=O)NCCOCCOCCOCCOC)c3)n[nH]c2c1 [Compound 4]  log10(solubility)         -0.51

Lab note: each compound below needs its log10(solubility) filled in.
1. CNC(=O)c1ccccc1Sc1ccc2c(C#Cc3ccc(NC(=O)NCCOCCOCCNC(C)=O)cc3)n[nH]c2c1 [Compound 45]
2. CNC(=O)c1ccccc1Sc1ccc2c(/C=C/c3ccccn3)n[nH]c2c1 [Compound A, reference compound]
3. CNC(=O)c1ccccc1Sc1ccc2c(C#Cc3ccc(NC(=O)NCCOCCOCCOCCOC)cc3)n[nH]c2c1 [Compound 9]

**Result**
-0.25
-1.35
0.08

Lab note: each compound below needs its log10(solubility) filled in.
1. CNC(=O)c1ccccc1Sc1ccc2c(C#Cc3ccc(NCCOCCOCCOCCOC)cc3)n[nH]c2c1 [Compound 28]
2. CNC(=O)c1ccccc1Sc1ccc2c(C#Cc3ccc(NC(=O)NCCOCCOCCOCCOCCOC)cn3)n[nH]c2c1 [Compound 37]
3. CNC(=O)c1ccccc1Sc1ccc2c(C#Cc3ccc(NC(=O)NCCOCCOCCOC)cc3)n[nH]c2c1 [Compound 8]

**Result**
1: -0.77; 2: 1.46; 3: 0.00

* * *

measurementProtocol: Solubility test in 0.1% phosphate buffer solution (pH 7.0)
Type: physicochemical
testContext: aqueous buffer, thermodynamic from solid; 0.1% phosphate buffer solution (pH 7.0), room temperature overnight
recordedMetric: log10 of solubility (log10 of the value in µg/mL)
Annotation: log10 of solubility, µg/mL basis.

Use the examples below as a reference point.
> print(dat)
                                   compound  resultnumber
1  CNC(=O)c1ccccc1Sc1ccc2c(C#Cc3ccc(NC(=O)NCCOCCOCCOCCOCCOC)nc3)n[nH]c2c1          0.41
2  CNC(=O)c1ccccc1Sc1ccc2c(C#Cc3ccc(NCCOCCOCCOCCOCCOC)cc3)n[nH]c2c1         -0.05
3  CNC(=O)c1ccccc1Sc1ccc2c(C#Cc3ccc(NC(=O)NCCOCCOCCOCCOCCOC)cc3)n[nH]c2c1          0.40
4  CNC(=O)c1ccccc1Sc1ccc2c(C#Cc3ccc(NC(=O)NCCOCCOCCO)cc3)n[nH]c2c1          0.49
5  CNC(=O)c1ccccc1Sc1ccc2c(C#Cc3cccc(NC(=O)NCCOCCOCCOCCOCCOC)c3)n[nH]c2c1          0.00

Lab note: each compound below needs its log10 of solubility filled in.
1. CNC(=O)c1ccccc1Sc1ccc2c(C#Cc3ccc(NC(=O)NCCOCCOCCN)cc3)n[nH]c2c1
2. CNC(=O)c1ccccc1Sc1ccc2c(C#Cc3ccc(NC(=O)OCCOCCOCCOCCOC)cc3)n[nH]c2c1
3. CNC(=O)c1ccccc1Sc1ccc2c(C#Cc3ccc(NC(=O)OCCOCCOCCOC)cc3)n[nH]c2c1
4. CNC(=O)c1ccccc1Sc1ccc2c(C#Cc3ccccn3)n[nH]c2c1 [Compound B, reference compound]
5. CNC(=O)c1ccccc1Sc1ccc2c(C#Cc3ccc(NC(=O)COCCOCCOCCOC)cn3)n[nH]c2c1
6. CNC(=O)c1ccccc1Sc1ccc2c(C#Cc3ccc(NCCOCCOCCOC)cc3)n[nH]c2c1

**Result**
1.51
-0.42
-0.57
-1.08
-0.28
-0.32

Lab note: each compound below needs its log10 of solubility filled in.
1. CNC(=O)c1ccccc1Sc1ccc2c(C#Cc3ccc(NC(=O)NCCOCCOCCN4CCOCC4)cc3)n[nH]c2c1
2. CNC(=O)c1ccccc1Sc1ccc2c(C#Cc3ccc(NC(=O)NCCOCCOCCOCCOC)cn3)n[nH]c2c1
3. CNC(=O)c1ccccc1Sc1ccc2c(C#Cc3ccc(NC(=O)COCCOCCOCCOCCOCCOC)cc3)n[nH]c2c1
4. CNC(=O)c1ccccc1Sc1ccc2c(C#Cc3ccc(NC(=O)NCCOCCOCCN(C)C)cc3)n[nH]c2c1

**Result**
0.15
1.20
0.52
0.88

The origin of these recorded values is patent US9617222B1.
